- ASSAY_SUMMARY: Analysis of aqueous solubility (water and fasted state simulated intestinal fluid)
- Assay type: physicochemical
- COND: thermodynamic from solid; water, 37° C., 24 hours; read-out: Test Compound Solubility

# SMILES_STR, solubility at 24 h [µg/mL]
measured = [
    ("COc1cc(F)c(-c2cc(Cn3cnc4c(N)ncnc43)c(N3CCC[C@](N)([C@H](O)C(F)F)C3)cn2)cc1F", 0.2),
    ("COc1cc(F)c(-c2cc(Cn3cnc4c(N)ncnc43)c(N3CCC[C@](N)([C@H](O)C(F)F)C3)cn2)cc1F.O=C(O)C(O)C(O)C(=O)O", 2400),
    ("COc1cc(F)c(-c2cc(Cn3cnc4c(N)ncnc43)c(N3CCC[C@](N)([C@H](O)C(F)F)C3)cn2)cc1F.O=C(O)/C=C/C(=O)O", 488),
]

* * *

- ASSAY_SUMMARY: Water solubility of crystalline form at pH 6.8 and 37° C.
- Assay type: physicochemical
- COND: aqueous buffer, pH 6.8, 37° C., after 30 minutes

# COMPOUND, solubility at 30 min
records = [
    ("COc1cc(F)c(-c2cc(Cn3cnc4c(N)ncnc43)c(N3CCC[C@](N)([C@H](O)C(F)F)C3)cn2)cc1F.O=C(O)C(O)C(O)C(=O)O [Compound A]", "> 2000 µg/mL"),
]

* * *

- ASSAY_SUMMARY: Analysis of aqueous solubility (water and fasted state simulated intestinal fluid)
- Assay type: physicochemical
- COND: fassif, thermodynamic from solid; fasted state simulated intestinal fluid, 37° C., 24 hours; read-out: Test Compound Solubility
Each item that follows carries a reported solubility at 24 h.

# SMILES_STR, solubility at 24 h
data = [
    ("COc1cc(F)c(-c2cc(Cn3cnc4c(N)ncnc43)c(N3CCC[C@](N)([C@H](O)C(F)F)C3)cn2)cc1F.O=C(O)/C=C/C(=O)O", "506 µg/mL"),
    ("COc1cc(F)c(-c2cc(Cn3cnc4c(N)ncnc43)c(N3CCC[C@](N)([C@H](O)C(F)F)C3)cn2)cc1F.O=C(O)C(O)C(O)C(=O)O", "1600 µg/mL"),
    ("COc1cc(F)c(-c2cc(Cn3cnc4c(N)ncnc43)c(N3CCC[C@](N)([C@H](O)C(F)F)C3)cn2)cc1F", "298 µg/mL"),
]
